I'd be grateful if you could share measured normalized RNA/DNA level without ligand (log10) for these entries.
B1: library; a variant is named by its letters at N, in order (parent)
chain: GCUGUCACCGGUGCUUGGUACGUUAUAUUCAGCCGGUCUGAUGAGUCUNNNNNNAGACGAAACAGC

variants of: B1; test: normalized RNA/DNA level without ligand (relative to sTRSVctl = 100) (log10 (% of sTRSVctl)); HEK293T overexpressing SLC46A1; higher = less ribozyme self-cleavage, higher mRNA level; conditions: without (6R,S)-folinic acid; ligand present: no
Quick one: just the number, no unit, thanks!

Reported normalized RNA/DNA level without ligand (log10) for GCUGUCACCGGUGCUUGGUACGUUAUAUUCAGCCGGUCUGAUGAGUCUGGAAGUAGACGAAACAGC [GGAAGU] : what is it?
1.98

Reported normalized RNA/DNA level without ligand (log10) for GCUGUCACCGGUGCUUGGUACGUUAUAUUCAGCCGGUCUGAUGAGUCUUCCGGAAGACGAAACAGC [UCCGGA] : what is it?
1.99

Reported normalized RNA/DNA level without ligand (log10) for GCUGUCACCGGUGCUUGGUACGUUAUAUUCAGCCGGUCUGAUGAGUCUCGCUUUAGACGAAACAGC [CGCUUU] : what is it?
2.02

Reported normalized RNA/DNA level without ligand (log10) for GCUGUCACCGGUGCUUGGUACGUUAUAUUCAGCCGGUCUGAUGAGUCUGUAUUAAGACGAAACAGC [GUAUUA] : what is it?
2

Reported normalized RNA/DNA level without ligand (log10) for GCUGUCACCGGUGCUUGGUACGUUAUAUUCAGCCGGUCUGAUGAGUCUGCCGAUAGACGAAACAGC [GCCGAU] : what is it?
2.01

Reported normalized RNA/DNA level without ligand (log10) for GCUGUCACCGGUGCUUGGUACGUUAUAUUCAGCCGGUCUGAUGAGUCUUAUGUUAGACGAAACAGC [UAUGUU] : what is it?
1.95

Reported normalized RNA/DNA level without ligand (log10) for GCUGUCACCGGUGCUUGGUACGUUAUAUUCAGCCGGUCUGAUGAGUCUUUAAGAAGACGAAACAGC [UUAAGA] : what is it?
1.95

Reported normalized RNA/DNA level without ligand (log10) for GCUGUCACCGGUGCUUGGUACGUUAUAUUCAGCCGGUCUGAUGAGUCUACCAUGAGACGAAACAGC [ACCAUG] : what is it?
1.98

Reported normalized RNA/DNA level without ligand (log10) for GCUGUCACCGGUGCUUGGUACGUUAUAUUCAGCCGGUCUGAUGAGUCUUCACGUAGACGAAACAGC [UCACGU] : what is it?
1.98

Reported normalized RNA/DNA level without ligand (log10) for GCUGUCACCGGUGCUUGGUACGUUAUAUUCAGCCGGUCUGAUGAGUCUAGGUUCAGACGAAACAGC [AGGUUC] : what is it?
2.02

Reported normalized RNA/DNA level without ligand (log10) for GCUGUCACCGGUGCUUGGUACGUUAUAUUCAGCCGGUCUGAUGAGUCUUGUCCAAGACGAAACAGC [UGUCCA] : what is it?
2.02

Reported normalized RNA/DNA level without ligand (log10) for GCUGUCACCGGUGCUUGGUACGUUAUAUUCAGCCGGUCUGAUGAGUCUGUCUUAAGACGAAACAGC [GUCUUA] : what is it?
2.03

Reported normalized RNA/DNA level without ligand (log10) for GCUGUCACCGGUGCUUGGUACGUUAUAUUCAGCCGGUCUGAUGAGUCUACAUGCAGACGAAACAGC [ACAUGC] : what is it?
2.01

Reported normalized RNA/DNA level without ligand (log10) for GCUGUCACCGGUGCUUGGUACGUUAUAUUCAGCCGGUCUGAUGAGUCUACAUUAAGACGAAACAGC [ACAUUA] : what is it?
2.01

Reported normalized RNA/DNA level without ligand (log10) for GCUGUCACCGGUGCUUGGUACGUUAUAUUCAGCCGGUCUGAUGAGUCUCGAGCAAGACGAAACAGC [CGAGCA] : what is it?
2

Reported normalized RNA/DNA level without ligand (log10) for GCUGUCACCGGUGCUUGGUACGUUAUAUUCAGCCGGUCUGAUGAGUCUAGCAUAAGACGAAACAGC [AGCAUA] : what is it?
1.99

Reported normalized RNA/DNA level without ligand (log10) for GCUGUCACCGGUGCUUGGUACGUUAUAUUCAGCCGGUCUGAUGAGUCUAAGCUGAGACGAAACAGC [AAGCUG] : what is it?
2.01

Reported normalized RNA/DNA level without ligand (log10) for GCUGUCACCGGUGCUUGGUACGUUAUAUUCAGCCGGUCUGAUGAGUCUUGGGUUAGACGAAACAGC [UGGGUU] : what is it?
1.99

Reported normalized RNA/DNA level without ligand (log10) for GCUGUCACCGGUGCUUGGUACGUUAUAUUCAGCCGGUCUGAUGAGUCUGUGCCUAGACGAAACAGC [GUGCCU] : what is it?
2.02

Reported normalized RNA/DNA level without ligand (log10) for GCUGUCACCGGUGCUUGGUACGUUAUAUUCAGCCGGUCUGAUGAGUCUCACUUCAGACGAAACAGC [CACUUC] : what is it?
2.04

Reported normalized RNA/DNA level without ligand (log10) for GCUGUCACCGGUGCUUGGUACGUUAUAUUCAGCCGGUCUGAUGAGUCUCCGUGCAGACGAAACAGC [CCGUGC] : what is it?
2.03

Reported normalized RNA/DNA level without ligand (log10) for GCUGUCACCGGUGCUUGGUACGUUAUAUUCAGCCGGUCUGAUGAGUCUCAUGUUAGACGAAACAGC [CAUGUU] : what is it?
2.03

Reported normalized RNA/DNA level without ligand (log10) for GCUGUCACCGGUGCUUGGUACGUUAUAUUCAGCCGGUCUGAUGAGUCUUUAAGCAGACGAAACAGC [UUAAGC] : what is it?
2.02

Reported normalized RNA/DNA level without ligand (log10) for GCUGUCACCGGUGCUUGGUACGUUAUAUUCAGCCGGUCUGAUGAGUCUAGGGUAAGACGAAACAGC [AGGGUA] : what is it?
1.97

Reported normalized RNA/DNA level without ligand (log10) for GCUGUCACCGGUGCUUGGUACGUUAUAUUCAGCCGGUCUGAUGAGUCUCUGUCUAGACGAAACAGC [CUGUCU] : what is it?
2.04

Reported normalized RNA/DNA level without ligand (log10) for GCUGUCACCGGUGCUUGGUACGUUAUAUUCAGCCGGUCUGAUGAGUCUUUUACUAGACGAAACAGC [UUUACU] : what is it?
2.03

Reported normalized RNA/DNA level without ligand (log10) for GCUGUCACCGGUGCUUGGUACGUUAUAUUCAGCCGGUCUGAUGAGUCUCACGCUAGACGAAACAGC [CACGCU] : what is it?
2.04

Reported normalized RNA/DNA level without ligand (log10) for GCUGUCACCGGUGCUUGGUACGUUAUAUUCAGCCGGUCUGAUGAGUCUCAAAGAAGACGAAACAGC [CAAAGA] : what is it?
1.99

Reported normalized RNA/DNA level without ligand (log10) for GCUGUCACCGGUGCUUGGUACGUUAUAUUCAGCCGGUCUGAUGAGUCUGUCGAAAGACGAAACAGC [GUCGAA] : what is it?
1.98

Reported normalized RNA/DNA level without ligand (log10) for GCUGUCACCGGUGCUUGGUACGUUAUAUUCAGCCGGUCUGAUGAGUCUCAUUGGAGACGAAACAGC [CAUUGG] : what is it?
1.95

Reported normalized RNA/DNA level without ligand (log10) for GCUGUCACCGGUGCUUGGUACGUUAUAUUCAGCCGGUCUGAUGAGUCUACCGCAAGACGAAACAGC [ACCGCA] : what is it?
2.01

Reported normalized RNA/DNA level without ligand (log10) for GCUGUCACCGGUGCUUGGUACGUUAUAUUCAGCCGGUCUGAUGAGUCUUUUGGCAGACGAAACAGC [UUUGGC] : what is it?
1.99

Reported normalized RNA/DNA level without ligand (log10) for GCUGUCACCGGUGCUUGGUACGUUAUAUUCAGCCGGUCUGAUGAGUCUAGCAUUAGACGAAACAGC [AGCAUU] : what is it?
2.01
